Test system: HEK-293T
protocol.details: Multiplex assay against HEK293T
Type: toxicity, cell-based
recorded.conditions: human, 12 h, 10 µM, compound concentration 10 uM, replicate 1
property.name: Population Apoptotic (%)

compound: COc1cc2nccc(Oc3ccc(NC(=O)Nc4cc(C)on4)c(Cl)c3)c2cc1OC.O
property.name: Population Apoptotic (%)
readout.value: 82
--
compound: CNc1nc(NCc2ccc(NS(C)(=O)=O)cc2Cl)cc(-c2ccccn2)n1
property.name: Population Apoptotic (%)
readout.value: 60
--
compound: Cc1[nH]c(/C=C2\C(=O)Nc3ccc(S(=O)(=O)N(C)c4cccc(Cl)c4)cc32)c(C)c1C(=O)N1CCN(C)CC1
property.name: Population Apoptotic (%)
readout.value: 67
--
compound: O=C1NCN(c2ccccc2)C12CCN(CCCOc1ccc(F)cc1)CC2 [SPIRAMIDE]
property.name: Population Apoptotic (%)
readout.value: 66
--
compound: Cc1nc(-c2cn3c(n2)-c2ccc(-c4cnn(C(C)(C)C(N)=O)c4)cc2OCC3)n(C(C)C)n1 [TASELISIB]
property.name: Population Apoptotic (%)
readout.value: 17
--
compound: COc1cccc([C@@H](C)NCCCc2ccccc2Cl)c1.Cl [TECALCET HYDROCHLORIDE]
property.name: Population Apoptotic (%)
readout.value: 80
--
compound: CN(C)CC#Cc1ccc(OCCCc2sc(N3CCc4cccc(C(=O)Nc5nc6ccccc6s5)c4C3)nc2C(=O)O)c(F)c1 [A-1155463]
property.name: Population Apoptotic (%)
readout.value: 40
--
compound: CN1CCN(CCOc2cc(OC3CCOCC3)c3c(Nc4c(Cl)ccc5c4OCO5)ncnc3c2)CC1 [SARACATINIB]
property.name: Population Apoptotic (%)
readout.value: 72

* * *

# Population Fragmented Nuclei (%) listing for each entry below
Test system: U2OS
protocol.details: Multiplex assay against U2OS
Assay type: toxicity, cell-based
recorded.conditions: human, 12 h, 10 µM, compound concentration 10 uM, replicate 2

compound: Cl.N#Cc1ccc2[nH]cc(CCCCN3CCN(c4ccc5oc(C(N)=O)cc5c4)CC3)c2c1 [VILAZODONE HYDROCHLORIDE]
Population Fragmented Nuclei (%): 20

compound: Cc1csc2c(N[C@@H](C)CN3CCN(S(=O)(=O)c4ccc(Cl)c(Cl)c4)CC3)ncnc12
Population Fragmented Nuclei (%): 12

compound: OC1(c2ccc(Cl)cc2)CCN(Cc2c[nH]c3ccccc23)CC1
Population Fragmented Nuclei (%): 13

compound: COc1ncc(-c2ccc3nccc(-c4ccnnc4)c3c2)cc1NS(=O)(=O)c1ccc(F)cc1F
Population Fragmented Nuclei (%): 33

compound: C=CC(=O)Nc1cc2c(Nc3ccc(F)c(Cl)c3)ncnc2cc1OCCCN1CCOCC1.Cl.Cl [CANERTINIB DIHYDROCHLORIDE]
Population Fragmented Nuclei (%): 12

compound: COc1cc2nccc(Oc3ccc(NC(=O)Nc4cc(C)on4)c(Cl)c3)c2cc1OC.O
Population Fragmented Nuclei (%): 11

compound: COc1cccc([C@@H](C)NCCCc2ccccc2Cl)c1.Cl [TECALCET HYDROCHLORIDE]
Population Fragmented Nuclei (%): 7

compound: CN(C)C(=O)N[C@H]1CC[C@H](CCN2CCN(c3cccc(Cl)c3Cl)CC2)CC1.Cl [CARIPRAZINE HYDROCHLORIDE]
Population Fragmented Nuclei (%): 17
